test system: barnyardgrass; assay: Test B flooded paddy test; type: in vivo, Echinochloa crus-galli; settings: 1000 g ai/ha, visual rating, scale 0 to 100 (0 no effect, 100 complete control), 13 to 15 days
Mark Yes for reported Barnyardgrass plant response rating of 10 or greater; mark No for anything smaller.

compound="CCn1nc(C(C)(C)C)cc1C(=O)Nc1cccc(C(=O)OC(C)(C)C)c1 [Compound 98]" answer_label=No
compound="C#CCn1nc(C(C)(C)C)cc1C(=O)Nc1cccc(C(=O)NCC)c1 [Compound 50]" answer_label=Yes
compound="C#CCNC(=O)c1cccc(NC(=O)c2cc(C(C)(C)C)nn2CC)c1 [Compound 47]" answer_label=Yes
compound="C=CCNC(=O)c1cccc(NC(=O)c2sc(C(C)(C)C)nc2CC)c1 [Compound 207]" answer_label=Yes

###

In this section, each of the compounds is paired with its reported Lambsquarters plant response rating.
tested on: lambsquarters; assay: Test B pre-/postemergence herbicide test; type: in vivo, Chenopodium album; conditions: postemergence, 500 g ai/ha; visual rating, scale 0 (no effect) to 100 (complete control)
Property name: Lambsquarters plant response rating

compound="CCn1nc(C(C)(C)C)cc1C(=O)Nc1cccc(C(N)=O)n1 [Compound 162]" measurement=90
compound="CCc1nc(C(C)(C)C)sc1C(=O)Nc1cccc(C(=O)NCC(F)(F)F)c1 [Compound 206]" measurement=80
compound="CCNC(=O)c1cccc(NC(=O)c2cn(C(C)(C)C)nc2CC)c1 [Compound 181]" measurement=90
compound="CCn1nc(C(C)(C)C)cc1C(=O)Nc1cc(C(=O)NCCOC)ccn1 [Compound 161]" measurement=70
compound="CCc1cn(C(C)(C)C)nc1C(=O)Nc1cc(C(=O)N(CC)CC)ccn1 [Compound 234]" measurement=40
compound="CCn1nc(C(C)(C)C)cc1C(=O)Nc1cccc(SC(F)(F)F)c1 [Compound 130]" measurement=100
compound="CCn1nc(C(C)(C)C)cc1C(=O)Nc1nc(OC)cc(OC)n1 [Compound 166]" measurement=0
compound="COC(=O)c1cccc(NC(=O)c2sc(C(C)(C)C)nc2C)c1 [Compound 197]" measurement=0

###

Overview of reported Morningglory plant response rating across a group of compounds:
system: morningglory; test: Test B pre-/postemergence herbicide test; type: in vivo, Ipomoea coccinea; settings: postemergence, 500 g ai/ha; scale 0 to 100, 0 is no effect, 100 is complete control
Property name: Morningglory plant response rating

compound=CCn1nc(C2(C)CC2)cc1C(=O)Nc1cccc(C(=O)N(C)C)c1 property_name="Morningglory plant response rating" measurement=90
compound=CCn1nc(C(C)(C)C)cc1C(=O)Nc1cc(C(=S)N(C)C)ccn1 property_name="Morningglory plant response rating" measurement=80
compound=CCN(C)C(=O)c1cncc(NC(=O)c2cc(C(C)(C)C)nn2CC)c1 property_name="Morningglory plant response rating" measurement=20
compound=CCn1nc(C(C)(C)C)cc1C(=O)Nc1cc(C(=S)N(C)C)ccc1F property_name="Morningglory plant response rating" measurement=20
compound="CCOC(=O)c1ccc(F)c(NC(=O)C2CN(C(C)(C)C)N=C2CC)c1 (racemic)" property_name="Morningglory plant response rating" measurement=40
compound=CCOC(=O)c1cccc(NC(=O)c2cc(C(C)(C)C)nn2C)n1 property_name="Morningglory plant response rating" measurement=80
compound=CCn1nc(C(C)(C)C)cc1C(=S)Nc1cc(C(=S)N(C)C)ccc1F property_name="Morningglory plant response rating" measurement=0
compound=CCc1nn(C(C)(C)C)nc1C(=O)Nc1cc(C(=O)N(C)C)ccc1F property_name="Morningglory plant response rating" measurement=80
compound=CCNC(=O)c1cccc(NC(=O)c2cc(C3(C)CC3)nn2CC)c1 property_name="Morningglory plant response rating" measurement=70

Each recorded value in this set is attributed to patent US20060069132A1.
